system: primary hepatocytes isolated from rats; test: Cell protective effects against doxorubicin in hepatocytes (WST-1 cell viability); assay type: cell-based; conditions: Hepatocyte; primary rat hepatocytes pretreated with compound for 30 min, then doxorubicin; viability by WST-1 after 24-48 h
pEC50: −log10 of the molar value.
Field: label. Allowed values: TRUE (pEC50 < 6) or FALSE (pEC50 >= 6).

# chem_smiles, test_system, assigned_class
records = [
    ("Cc1cc(NC2CCCC2)c2[nH]c(C3=N[C@@H](CC(=O)O)CS3)cc2c1", "primary hepatocytes isolated from rats", "FALSE"),
    ("c1cc(NC2CCCC2)c2[nH]c(C3=NCCS3)cc2c1", "primary hepatocytes isolated from rats", "TRUE"),
    ("FCc1nnc2n1CCN(CC[C@H]1CSC(c3cc4cc(Oc5ccccc5)cc(NC5CCCC5)c4[nH]3)=N1)C2", "primary hepatocytes isolated from rats", "FALSE"),
]

IN: Dear reviewer, please state whether c1ccc(Oc2cc(NC3CCCC3)c3[nH]c(C4=N[C@H](CCN5CCCC5)CS4)cc3c2)cc1 has pEC50 strictly beneath 6.
OUT: FALSE

IN: Dear reviewer, please state whether OC[C@@H]1CSC(c2cc3cc(Oc4cccnc4)cc(NC4CCOCC4)c3[nH]2)=N1 has pEC50 strictly beneath 6.
OUT: TRUE

IN: Dear reviewer, please state whether O=C(O)C[C@@H]1CSC(c2cc3cc(Oc4cccnc4)cc(NC4CCCC4)c3[nH]2)=N1 has pEC50 strictly beneath 6.
OUT: TRUE

IN: Dear reviewer, please state whether O=C(O)C[C@H]1CSC(c2cc3cccc(NC4CCOCC4)c3[nH]2)=N1 has pEC50 strictly beneath 6.
OUT: TRUE

====

EC50: recorded values
test system: primary hepatocytes isolated from rats; test: Cell protective effects against doxorubicin in hepatocytes (WST-1 cell viability); type: cell-based; conditions: Hepatocyte; primary rat hepatocytes pretreated with compound for 30 min, then doxorubicin; viability by WST-1 after 24-48 h
Dear colleague, please return just the value in nM, with no unit written.

# chem_smiles, uom, EC50
data = [
    ("CC(=O)Nc1cc(NC2CCCC2)c2[nH]c(C3=N[C@H](CO)CS3)cc2c1", "nM", 2000),
    ("O=C(O)C[C@@H]1CSC(c2cc3cc(Oc4ccccc4)cc(NCC4CCOCC4)c3[nH]2)=N1", "nM", 600),
    ("c1ccc(Oc2cc(NCC3CCOCC3)c3[nH]c(C4=N[C@@H](CCN5CCOCC5)CS4)cc3c2)cc1", "nM", 860),
    ("Cc1cc(NC2CCC(=O)CC2)c2[nH]c(C3=N[C@H](CC(=O)O)CS3)cc2c1", "nM", 1260),
    ("CCOc1cc(NC2CCCC2)c2[nH]c(C3=N[C@H](CC(=O)O)CS3)cc2c1", "nM", 600),
]

IN: Given the entry Cc1cc(NC2CCOCC2)c2[nH]c(C3=N[C@@H](CC(=O)O)CO3)cc2c1 , report its measured EC50.
OUT: 1120

====

pEC50: recorded values
System: primary hepatocytes isolated from rats
Assay: Cell protective effects against doxorubicin in hepatocytes (WST-1 cell viability)
Format: cell-based
Conditions: Hepatocyte; primary rat hepatocytes pretreated with compound for 30 min, then doxorubicin; viability by WST-1 after 24-48 h
Description: Various endogenous/exogenous attacks on the cells trigger the mechanisms of cell death which is broadly classified into two types, i.e. apoptosis or necrosis. […] The cells were suspended in HepatoZYME media (Gibco BRL), and the number of cells was counted. […] In order to assess the hepatocyte protective effect, above adhered cells were pretreated with the Example compounds for 30 min. […] After 24-48 h, the viability of cells was determined to estimate the hepatocyte protective effects. […]
API: returns pEC50 as number; meaning -log10 of concentration in mol/L.

Solved entries:
# compound, test_system, pEC50
records = [
    ("CC1CSC(c2cc3cccc(NC4CCOCC4)c3[nH]2)=N1 (stereo not shown) [Example 32]", "primary hepatocytes isolated from rats", 5.67),
    ("O=C(O)C[C@H]1CSC(c2cc3cccc(NCC4CCCCO4)c3[nH]2)=N1 (stereo partly shown) [Example 10]", "primary hepatocytes isolated from rats", 6.22),
    ("Cc1cc(NCC2CCOCC2)c2[nH]c(C3=N[C@H](CC(=O)O)CS3)cc2c1 [Example 8]", "primary hepatocytes isolated from rats", 6.39),
    ("CN(C)Cc1cc(NC2CCCC2)c2[nH]c(C3=N[C@H](CO)CS3)cc2c1 [Example 34]", "primary hepatocytes isolated from rats", 5.25),
    ("Cc1cc(NC2CCCC2)c2[nH]c(-c3ncc(CO)s3)cc2c1 [Example 130]", "primary hepatocytes isolated from rats", 7.00),
]

IN: Provide the documented pEC50 with primary hepatocytes isolated from rats as the system for Cc1cc(NCC2CCCC2)c2[nH]c(C3=N[C@@H](CC(=O)O)CS3)cc2c1 [Example 23]
OUT: 6.85

IN: Provide the documented pEC50 with primary hepatocytes isolated from rats as the system for O=C1c2ccccc2C(=O)N1Cc1cc(NC2CCCC2)c2[nH]c(C3=N[C@H](CO)CS3)cc2c1 [Example 64]
OUT: 6.27

IN: Provide the documented pEC50 with primary hepatocytes isolated from rats as the system for OCc1cc(NC2CCCC2)c2[nH]c(C3=N[C@H](CO)CS3)cc2c1 [Example 6]
OUT: 5.31

IN: Provide the documented pEC50 with primary hepatocytes isolated from rats as the system for Cc1cc(NCC2CCOCC2)c2[nH]c(C3=N[C@@H](CC(=O)O)CS3)cc2c1 [Example 22]
OUT: 6.60

IN: Provide the documented pEC50 with primary hepatocytes isolated from rats as the system for O=C(O)C[C@H]1CSC(c2cc3cc(Oc4ccccc4)cc(NC4CCCC4)c3[nH]2)=N1 [Example 50]
OUT: 6.60

IN: Provide the documented pEC50 with primary hepatocytes isolated from rats as the system for O=C1CCCN1CC[C@@H]1CSC(c2cc3cc(F)cc(NC4CCCC4)c3[nH]2)=N1 [Example 205]
OUT: 6.47

IN: Provide the documented pEC50 with primary hepatocytes isolated from rats as the system for O=C(O)C[C@H]1CSC(c2cc3cc(Cl)cc(NCC4CCOCC4)c3[nH]2)=N1 [Example 18]
OUT: 5.62
